Taken from the NIST ThermoML archive (doi:10.1021/acs.jced.5b00627).

# test-description: mn = molality of the nth substance listed, in mol/kg
# condition-context: 318.15 K; 100 kPa; Liquid; Vibrating tube method; m1 = 0.1
measured-endpoint: mass density (kg/m3)
Give the quantity in kg/m3, number only.

Below: 2 compounds and their reported mass density.
>  <compound>
COc1cc(-c2cc(-c3ccc(O)cc3)[nH]c(=O)c2C#N)ccc1O + C[S+](C)[O-]

>  <display-unit>
kg/m3

>  <mass density>
1081.94

$$$$
>  <compound>
COc1cc(-c2cc(-c3ccccc3)[nH]c(=O)c2C#N)ccc1O + C[S+](C)[O-]

>  <display-unit>
kg/m3

>  <mass density>
1080.75

$$$$

INPUT: GET /values?readout=mass density&item= COc1cc(-c2cc(-c3ccc(Cl)cc3)[nH]c(=O)c2C#N)ccc1O + C[S+](C)[O-]
OUTPUT: 1082.35

INPUT: GET /values?readout=mass density&item= COc1cc(-c2cc(-c3ccccc3O)[nH]c(=O)c2C#N)ccc1O + C[S+](C)[O-]
OUTPUT: 1081.9

---

# test-description: mn = molality of the nth substance listed, in mol/kg
# condition-context: 308.15 K; 100 kPa; Liquid; Capillary tube (Ostwald / Ubbelohde) method; m1 = 0.01
This section presents compounds with their documented viscosity values.
Give the quantity in mPa·s, number only.

INPUT: GET /values?readout=viscosity&item= COc1cc(-c2cc(-c3ccc(O)cc3)[nH]c(=O)c2C#N)ccc1O + C[S+](C)[O-]
OUTPUT: 1.544

INPUT: GET /values?readout=viscosity&item= COc1cc(-c2cc(-c3ccccc3O)[nH]c(=O)c2C#N)ccc1O + C[S+](C)[O-]
OUTPUT: 1.535

INPUT: GET /values?readout=viscosity&item= COc1cc(-c2cc(-c3ccccc3)[nH]c(=O)c2C#N)ccc1O + C[S+](C)[O-]
OUTPUT: 1.525

INPUT: GET /values?readout=viscosity&item= COc1cc(-c2cc(-c3ccc(Cl)cc3)[nH]c(=O)c2C#N)ccc1O + C[S+](C)[O-]
OUTPUT: 1.545

---

# test-description: mn = molality of the nth substance listed, in mol/kg
# condition-context: 298.15 K; 100 kPa; Liquid; Vibrating tube method; m1 = 0.02
± gives the expanded uncertainty stated by the source.
measured-endpoint: mass density

Below: 3 compounds and their reported mass density.
>  <compound>
COc1cc(-c2cc(-c3ccccc3O)[nH]c(=O)c2C#N)ccc1O + C[S+](C)[O-]

>  <mass density>
1097.16 ± 1 kg/m3

$$$$
>  <compound>
COc1cc(-c2cc(-c3ccccc3)[nH]c(=O)c2C#N)ccc1O + C[S+](C)[O-]

>  <mass density>
1096.69 ± 1 kg/m3

$$$$
>  <compound>
COc1cc(-c2cc(-c3ccc(O)cc3)[nH]c(=O)c2C#N)ccc1O + C[S+](C)[O-]

>  <mass density>
1097.17 ± 1 kg/m3

$$$$

Consider the additional compound presented here.
INPUT: GET /values?readout=mass density&item= COc1cc(-c2cc(-c3ccc(Cl)cc3)[nH]c(=O)c2C#N)ccc1O + C[S+](C)[O-]
OUTPUT: 1097.3 ± 1 kg/m3

---

# test-description: mn = molality of the nth substance listed, in mol/kg
# condition-context: 318.15 K; 100 kPa; Liquid; Vibrating tube method; m1 = 0.01
measured-endpoint: mass density (kg/m3)
Give the quantity in kg/m3, number only.

>  <compound>
COc1cc(-c2cc(-c3ccc(Cl)cc3)[nH]c(=O)c2C#N)ccc1O + C[S+](C)[O-]

>  <mass density, kg/m3>
1076.43

$$$$
>  <compound>
COc1cc(-c2cc(-c3ccccc3)[nH]c(=O)c2C#N)ccc1O + C[S+](C)[O-]

>  <mass density, kg/m3>
1076.08

$$$$

INPUT: GET /values?readout=mass density&item= COc1cc(-c2cc(-c3ccc(O)cc3)[nH]c(=O)c2C#N)ccc1O + C[S+](C)[O-]
OUTPUT: 1076.45

INPUT: GET /values?readout=mass density&item= COc1cc(-c2cc(-c3ccccc3O)[nH]c(=O)c2C#N)ccc1O + C[S+](C)[O-]
OUTPUT: 1076.4

---

# test-description: mn = molality of the nth substance listed, in mol/kg
# condition-context: 298.15 K; 100 kPa; Liquid; Vibrating tube method; m1 = 0.04
This section presents compounds with their documented mass density values.
Give the quantity in kg/m3, number only.

Below: 3 compounds and their reported mass density.
>  <compound>
COc1cc(-c2cc(-c3ccc(O)cc3)[nH]c(=O)c2C#N)ccc1O + C[S+](C)[O-]

>  <observed-result>
1098.34

$$$$
>  <compound>
COc1cc(-c2cc(-c3ccc(Cl)cc3)[nH]c(=O)c2C#N)ccc1O + C[S+](C)[O-]

>  <observed-result>
1098.53

$$$$
>  <compound>
COc1cc(-c2cc(-c3ccccc3O)[nH]c(=O)c2C#N)ccc1O + C[S+](C)[O-]

>  <observed-result>
1098.32

$$$$

INPUT: GET /values?readout=mass density&item= COc1cc(-c2cc(-c3ccccc3)[nH]c(=O)c2C#N)ccc1O + C[S+](C)[O-]
OUTPUT: 1097.59

---

This section presents compounds with their documented speed of sound values.
# test-description: mn = molality of the nth substance listed, in mol/kg
# condition-context: 308.15 K; 100 kPa; Liquid; Frequency=3 MHz; Sing-around technique in a fixed-path interferometer; m1 = 0.04
± gives the expanded uncertainty stated by the source.

Below: 3 compounds and their reported speed of sound.
>  <compound>
COc1cc(-c2cc(-c3ccc(Cl)cc3)[nH]c(=O)c2C#N)ccc1O + C[S+](C)[O-]

>  <observed-result>
1454.7 ± 1.3 m/s

$$$$
>  <compound>
COc1cc(-c2cc(-c3ccccc3O)[nH]c(=O)c2C#N)ccc1O + C[S+](C)[O-]

>  <observed-result>
1454.2 ± 1.3 m/s

$$$$
>  <compound>
COc1cc(-c2cc(-c3ccccc3)[nH]c(=O)c2C#N)ccc1O + C[S+](C)[O-]

>  <observed-result>
1453.9 ± 1.3 m/s

$$$$

INPUT: GET /values?readout=speed of sound&item= COc1cc(-c2cc(-c3ccc(O)cc3)[nH]c(=O)c2C#N)ccc1O + C[S+](C)[O-]
OUTPUT: 1454.5 ± 1.3 m/s

---

# test-description: mn = molality of the nth substance listed, in mol/kg
# condition-context: 318.15 K; 100 kPa; Liquid; Capillary tube (Ostwald / Ubbelohde) method; m1 = 0.06
measured-endpoint: viscosity (mPa·s)
Give the quantity in mPa·s, number only.

>  <compound>
COc1cc(-c2cc(-c3ccc(Cl)cc3)[nH]c(=O)c2C#N)ccc1O + C[S+](C)[O-]

>  <display-unit>
mPa·s

>  <viscosity>
1.355

$$$$

INPUT: GET /values?readout=viscosity&item= COc1cc(-c2cc(-c3ccccc3)[nH]c(=O)c2C#N)ccc1O + C[S+](C)[O-]
OUTPUT: 1.345

INPUT: GET /values?readout=viscosity&item= COc1cc(-c2cc(-c3ccc(O)cc3)[nH]c(=O)c2C#N)ccc1O + C[S+](C)[O-]
OUTPUT: 1.392

INPUT: GET /values?readout=viscosity&item= COc1cc(-c2cc(-c3ccccc3O)[nH]c(=O)c2C#N)ccc1O + C[S+](C)[O-]
OUTPUT: 1.359

---

# test-description: mn = molality of the nth substance listed, in mol/kg
# condition-context: 318.15 K; 100 kPa; Liquid; Capillary tube (Ostwald / Ubbelohde) method; m1 = 0.04
This section presents molecules with their documented viscosity values.
Give the quantity in mPa·s, number only.

Below: 3 molecules and their reported viscosity.
>  <molecule>
COc1cc(-c2cc(-c3ccccc3)[nH]c(=O)c2C#N)ccc1O + C[S+](C)[O-]

>  <display-unit>
mPa·s

>  <observed-result>
1.319

$$$$
>  <molecule>
COc1cc(-c2cc(-c3ccccc3O)[nH]c(=O)c2C#N)ccc1O + C[S+](C)[O-]

>  <display-unit>
mPa·s

>  <observed-result>
1.327

$$$$
>  <molecule>
COc1cc(-c2cc(-c3ccc(O)cc3)[nH]c(=O)c2C#N)ccc1O + C[S+](C)[O-]

>  <display-unit>
mPa·s

>  <observed-result>
1.364

$$$$

Consider the additional molecule presented here.
INPUT: GET /values?readout=viscosity&item= COc1cc(-c2cc(-c3ccc(Cl)cc3)[nH]c(=O)c2C#N)ccc1O + C[S+](C)[O-]
OUTPUT: 1.324

---

This section presents compounds with their documented viscosity values.
# test-description: mn = molality of the nth substance listed, in mol/kg
# condition-context: 318.15 K; 100 kPa; Liquid; Capillary tube (Ostwald / Ubbelohde) method; m1 = 0.01
Numbers after ± are expanded uncertainties.
State the result as a value with its unit after it.

>  <compound>
COc1cc(-c2cc(-c3ccccc3O)[nH]c(=O)c2C#N)ccc1O + C[S+](C)[O-]

>  <viscosity>
1.247 ± 0.23 mPa·s

$$$$
>  <compound>
COc1cc(-c2cc(-c3ccc(Cl)cc3)[nH]c(=O)c2C#N)ccc1O + C[S+](C)[O-]

>  <viscosity>
1.264 ± 0.23 mPa·s

$$$$
>  <compound>
COc1cc(-c2cc(-c3ccccc3)[nH]c(=O)c2C#N)ccc1O + C[S+](C)[O-]

>  <viscosity>
1.242 ± 0.23 mPa·s

$$$$

INPUT: GET /values?readout=viscosity&item= COc1cc(-c2cc(-c3ccc(O)cc3)[nH]c(=O)c2C#N)ccc1O + C[S+](C)[O-]
OUTPUT: 1.265 ± 0.23 mPa·s
